Cytochrome P450 2C9 (Homo sapiens, UniProt P11712) AC50 data
Sequence (P11712 whole entry): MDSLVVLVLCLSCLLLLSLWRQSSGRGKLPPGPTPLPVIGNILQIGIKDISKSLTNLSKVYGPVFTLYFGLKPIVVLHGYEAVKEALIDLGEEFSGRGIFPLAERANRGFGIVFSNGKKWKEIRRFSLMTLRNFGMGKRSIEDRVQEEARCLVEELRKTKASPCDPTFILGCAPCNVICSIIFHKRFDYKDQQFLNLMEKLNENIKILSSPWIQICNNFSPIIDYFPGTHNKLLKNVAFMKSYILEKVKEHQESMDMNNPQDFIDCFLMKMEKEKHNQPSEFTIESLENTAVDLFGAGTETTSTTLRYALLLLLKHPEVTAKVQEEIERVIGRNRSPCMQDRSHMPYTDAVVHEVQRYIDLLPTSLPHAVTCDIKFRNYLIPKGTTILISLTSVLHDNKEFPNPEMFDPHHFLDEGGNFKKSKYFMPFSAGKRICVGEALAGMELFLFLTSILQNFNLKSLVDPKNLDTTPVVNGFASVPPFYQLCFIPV

Below: 5 compounds and their reported AC50.
>  <Compound>
COCCn1c(=O)c(C)nc2cnc(Nc3cccc(OC)c3)nc21

>  <AC50>
39.8 µM (inconclusive)

$$$$
>  <Compound>
COC(=O)C(NS(=O)(=O)c1ccc(NC(C)=O)cc1)C(C)C (configuration not stated)

>  <AC50>
1.58 µM (inconclusive)

$$$$
>  <Compound>
CCC(C)(C)c1ccc(Oc2cccc(C(=O)O)c2)cc1

>  <AC50>
5.01 µM (inconclusive)

$$$$
>  <Compound>
CCOC(=O)Cc1csc(NC(=S)NC(=O)c2ccc(F)cc2)n1

>  <AC50>
1.26 µM (inconclusive)

$$$$
>  <Compound>
COc1ccc(-n2c(=O)c(C)nc3cnc(Nc4cccc(OC)c4)nc32)cc1

>  <AC50>
39.8 µM (inconclusive)

$$$$

Reported AC50, compound COc1cccc(-c2[nH]nc3c2C(c2ccc(C)o2)C(C#N)=C(N)O3)c1 (configuration not stated) : ____ 15.8 µM (inconclusive)

For `O=C(COC(=O)c1cccnc1)c1ccc(Cl)c(Cl)c1` then? 7.94 µM (inconclusive)
